Target: T1, HLA-A2 (HLA-A*0201) (human)
T1 construct: MHC class I molecule to which the peptide is added in the assembly assay (T2 cells); folded molecules are immunoprecipitated with conformation-dependent antibody
Assay: assembly assay: HLA-A2 stabilisation, T2 cells, IP, IEF gel
value_kind: binding result

Q: Need binding result of SVKKQFEEL [Sur5 (Survivin88-96)] , thanks.
A: no binding

Q: Quick check: binding result of TAKKVRRAI [Sur7 (Survivin127-135)] ?
A: no binding

Q: Please give the measured binding result for this binder: RAIEQLAAM [Sur2 (Survivin133-141)]
A: no binding

Q: What does the record list as binding result for ETAKKVRRAI [Sur10 (Survivin126-135)] ?
A: no binding

Values were extracted from patent USRE48522.
